Form field: mortality at 400 µg/mL (one value per entry).
System: tomato root gall nematode (Meloidogyne incognita)
Experiment: Tomato root gall nematode test (II. stage infective larvae, treated NGM agar plate)
Assay type: in vivo
Conditions: Meloidogyne incognita; 400 μg/ml, 72 hours, second test; read-out: mortality 2.
Description: (6) Root gall nematode The test is carried out on II. stage infective larvae, which are collected from the root of tomato plant, placed on a filter and incubated in sterile water at 25° C. The hatched larvae are collected every 24 hours and immediately placed onto the treated nutrient medium. As nutrient medium NGM agar plate free from bacterial is used. […] After 72 hours the surviving and killed insects are counted.
Just the number please, in %, no unit attached.

Completed entries (count: 3):
                                   compound  quantitative_readout
0  COc1cc2c(cc1OC)OC(C)(C)C=C2 [Compound 1, 6,7-dimethoxy-2,2-dimethyl-2H-chromene, reference compound]                    95
1  CCOc1cc2c(cc1OC)C=CC(C)(C)O2 [Compound 3, reference compound]                    95
2             CCOc1cc2c(cc1OCC)OC(C)(C)C=C2                    90

Q. Lab note: need mortality at 400 µg/mL with tomato root gall nematode (Meloidogyne incognita) for entry CC1(C)C=Cc2cc3c(cc2O1)OCO3 , please look it up.
A. 92

Q. Request: C=CCOc1cc2c(cc1OCC=C)OC(C)(C)C=C2
A. 43

----------
Test system: domestic fly (Musca domestica)
Experiment: Domestic fly test (larvae in treated nutrient medium)
Format: in vivo
Conditions: 0.1% related to milk, 0.05% related to total nutrient medium
endpoint label: Survival nymph (%)
Number only, in %; omit the unit.

Solved entries (count: 3):
                                   compound  quantitative_readout
0            Cc1cc(OC(C)C)cc2c1C=CC(C)(C)O2                  50.9
1               COc1ccc2c(c1OC)OC(C)(C)C=C2                    12
2  COc1ccc2c(c1)OC(C)(C)C=C2 [Compound 23, 7-methoxy-2,2-dimethyl-2H-chromene, reference compound]                   100

Q. I have this compound here, CCCOc1ccc2c(c1OC)OC(C)(C)C=C2 , and I need its recorded Survival nymph.
A. 12

Q. Same lookup for CCOc1cc2c(cc1OC)OC(C)(C)C=C2 , please.
A. 85

Q. And CC(C)COc1ccc2c(c1)OC(C)(C)C=C2 ?
A. 100

----------
Tested on: cabbage butterfly (Pieris brassicae)
Test: Cabbage butterfly test (sprayed cabbage seedlings)
Type: in vivo
Settings: 50 EC, 0.1%
Could you please mark TRUE for values of Survival adult below 20% and FALSE for values at or above it?

Worked examples, 5 molecules total:
In [3]: df
Out[3]:
                           molecule  assigned_class
0   COc1cc(OC(C)C)cc2c1C=CC(C)(C)O2            TRUE
1   CCCOc1cc(OC)c2c(c1)OC(C)(C)C=C2            TRUE
2      CCOc1ccc2c(c1OC)OC(C)(C)C=C2           FALSE
3  COc1c(OCC(C)C)ccc2c1OC(C)(C)C=C2            TRUE
4   COc1c(OC(C)C)ccc2c1OC(C)(C)C=C2           FALSE

Q. Survival adult strictly < 20% for this molecule? C#CCOc1cc(C)c2c(c1)OC(C)(C)C=C2
A. TRUE

Q. And then CCOc1cc(C)c2c(c1)OC(C)(C)C=C2 , what is it?
A. TRUE

Q. Same question, CCC(C)Oc1cc(C)c2c(c1)OC(C)(C)C=C2 (centres unmarked) this time
A. TRUE
